Test system: primary human fibroblasts derived from IPF patients (LL29 cells), α-smooth muscle actin (αSMA)
experiment.description: Inhibition of the fibrotic process: TGF-β1-treated primary human fibroblasts from IPF patients, αSMA staining
Format: cell-based
applied.conditions: Fibroblast, 96 h, LL29 fibroblasts from IPF patients, TGF-β1 20 ng/mL, 4 days, inhibition of fibrotic process
metric: pEC50
One number for each entry, as −log10 of the molar value.

>  <molecule>
CS(=O)(=O)NCc1cc(F)cc(-c2ccnc3[nH]c(-c4n[nH]c5ccc(-c6cncc(CNCc7ccccc7)c6)nc45)nc23)c1 [Compound 500]

>  <pEC50>
5.03

$$$$

For the 2 molecules below, give their pEC50 values.
1. Clc1ccc(-c2ccnc3[nH]c(-c4n[nH]c5ccc(-c6cncc(CN7CCCC7)c6)nc45)nc23)s1 [Compound 1049]
2. COc1cccc(-c2ccnc3[nH]c(-c4n[nH]c5ccc(-c6cccnc6)nc45)nc23)c1 [Compound 994]

[6.17, 6.23]

###

Test system: primary human mesenchymal stem cells (hMSCs)
experiment.description: Induction of chondrogenesis in primary human mesenchymal stem cells (nodule imaging, Rhodamine B/Nile Red)
Format: cell-based
applied.conditions: hMSC chondrogenesis, TGF-β3 as positive control, read-out: Max. Activity as % TGF-β3 activity
# label = bin(measured Emax), where bins are bin 1 (below 60%), bin 2 (60% to below 70%), bin 3 (70% or more)

These recorded examples may help you get a feel for the data.
>  <mol>
Fc1cccc(-c2ccnc3[nH]c(-c4n[nH]c5ccc(C6=CCNCC6)nc45)nc23)c1

>  <class.assignment>
bin 1

$$$$
>  <mol>
CC(C)(C)C(=O)Nc1cncc(-c2ccc3[nH]nc(-c4nc5c(-c6ccc(F)cc6)ccnc5[nH]4)c3n2)c1

>  <class.assignment>
bin 2

$$$$
>  <mol>
Nc1cncc(-c2ccc3[nH]nc(-c4nc5c(-c6ccccc6F)ccnc5[nH]4)c3n2)c1

>  <class.assignment>
bin 3

$$$$
>  <mol>
Cc1ccncc1-c1ccc2[nH]nc(-c3nc4c(-c5ccsc5)ccnc4[nH]3)c2n1

>  <class.assignment>
bin 1

$$$$
>  <mol>
COc1cccc(-c2ccnc3[nH]c(-c4n[nH]c5ccc(-c6cccnc6)nc45)nc23)c1

>  <class.assignment>
bin 1

$$$$
>  <mol>
Cc1ccncc1-c1ccc2[nH]nc(-c3nc4c(-c5ccncc5)ccnc4[nH]3)c2n1

>  <class.assignment>
bin 3

$$$$
>  <mol>
CC(C)Nc1cncc(-c2ccc3[nH]nc(-c4nc5c(-c6cc(F)cc(NCCN(C)C)c6)ccnc5[nH]4)c3n2)c1

>  <class.assignment>
bin 2

$$$$
>  <mol>
Cc1ccc(-c2ccnc3[nH]c(-c4n[nH]c5ccc(-c6cncc(NC(=O)C(C)C)c6)nc45)nc23)s1

>  <class.assignment>
bin 2

$$$$
>  <mol>
CC(C)CC(=O)Nc1cncc(-c2ccc3[nH]nc(-c4nc5c(-c6cccc(F)c6)ccnc5[nH]4)c3n2)c1

>  <class.assignment>
bin 1

$$$$
>  <mol>
FC1(F)CCN(Cc2cncc(-c3ccc4[nH]nc(-c5nc6c(-c7ccsc7)ccnc6[nH]5)c4n3)c2)C1

>  <class.assignment>
bin 3

$$$$

Class label required: Fc1cccc(-c2ccnc3[nH]c(-c4n[nH]c5ccc(-c6cn[nH]c6)nc45)nc23)c1
bin 1

Class label required: CC(C)(C)C(=O)Nc1cncc(-c2ccc3[nH]nc(-c4nc5c(-c6ccc(Cl)s6)ccnc5[nH]4)c3n2)c1
bin 2

Values compiled from patent US10329309B2.
